Could you please report measured MIC for the items listed next?
Tested on: P. aeruginosa PA01
test protocol: General antimicrobial activity assay (CLSI broth microdilution)
Type: cell-based
test context: Pseudomonas aeruginosa, PA01, read-out: MIC: P. aeruginosa PA01

Input line: Find the measured MIC of CC1(C)COc2ccc(Cl)c3c2B(O[C@@H]3CN)O1.Cl and report it.
Output line: > 64 µg/mL

Input line: Find the measured MIC of CC1COc2ccc(Br)c3c2B(O1)OC3CN.Cl (centres unmarked) and report it.
Output line: > 64 µg/mL

Input line: Find the measured MIC of CC1(C)COc2ccc(Br)c3c2B(O[C@@H]3CN)O1.Cl and report it.
Output line: > 64 µg/mL

Input line: Find the measured MIC of CC1(C)COc2ccc(Cl)c3c2B(OC3CN)O1.Cl (centres unmarked) and report it.
Output line: > 64 µg/mL

Input line: Find the measured MIC of Cl.NC[C@H]1OB2OCCOc3ccc(Br)c1c32 and report it.
Output line: 64 µg/mL

###

Could you please report measured MIC for the items listed next?
Test system: P. aeruginosa PA01
test protocol: General antimicrobial activity assay (CLSI broth microdilution)
Format: cell-based
test context: Pseudomonas aeruginosa, PA01, read-out: MIC: P. aeruginosa PA01
State just the number; it will be interpreted in mg/L.

Input line: Specify the recorded MIC for NCC1OB2OCCOc3cccc1c32 (racemic) [Example C2-H, reference compound] , system: P. aeruginosa PA01.
Output line: 2

Input line: Specify the recorded MIC for Cl.NC[C@H]1OB2OCCOc3ccc(Cl)c1c32 [Example 4] , system: P. aeruginosa PA01.
Output line: 64

Input line: Specify the recorded MIC for Cl.NCC1OB2OCCOc3ccc(F)c1c32 (stereo not drawn) [Example 5] , system: P. aeruginosa PA01.
Output line: 4

Input line: Specify the recorded MIC for CC1COc2cccc3c2B(O1)OC3CN (stereo not drawn) [Example C11-H, reference compound] , system: P. aeruginosa PA01.
Output line: 2

Input line: Specify the recorded MIC for CC1(C)COc2cccc3c2B(OC3CN)O1 (stereo not drawn) [Example C12-H, reference compound] , system: P. aeruginosa PA01.
Output line: 16

###

measurement target: Human cyto LeuRS (Homo sapiens)
Sequence (Q9P2J5 whole entry): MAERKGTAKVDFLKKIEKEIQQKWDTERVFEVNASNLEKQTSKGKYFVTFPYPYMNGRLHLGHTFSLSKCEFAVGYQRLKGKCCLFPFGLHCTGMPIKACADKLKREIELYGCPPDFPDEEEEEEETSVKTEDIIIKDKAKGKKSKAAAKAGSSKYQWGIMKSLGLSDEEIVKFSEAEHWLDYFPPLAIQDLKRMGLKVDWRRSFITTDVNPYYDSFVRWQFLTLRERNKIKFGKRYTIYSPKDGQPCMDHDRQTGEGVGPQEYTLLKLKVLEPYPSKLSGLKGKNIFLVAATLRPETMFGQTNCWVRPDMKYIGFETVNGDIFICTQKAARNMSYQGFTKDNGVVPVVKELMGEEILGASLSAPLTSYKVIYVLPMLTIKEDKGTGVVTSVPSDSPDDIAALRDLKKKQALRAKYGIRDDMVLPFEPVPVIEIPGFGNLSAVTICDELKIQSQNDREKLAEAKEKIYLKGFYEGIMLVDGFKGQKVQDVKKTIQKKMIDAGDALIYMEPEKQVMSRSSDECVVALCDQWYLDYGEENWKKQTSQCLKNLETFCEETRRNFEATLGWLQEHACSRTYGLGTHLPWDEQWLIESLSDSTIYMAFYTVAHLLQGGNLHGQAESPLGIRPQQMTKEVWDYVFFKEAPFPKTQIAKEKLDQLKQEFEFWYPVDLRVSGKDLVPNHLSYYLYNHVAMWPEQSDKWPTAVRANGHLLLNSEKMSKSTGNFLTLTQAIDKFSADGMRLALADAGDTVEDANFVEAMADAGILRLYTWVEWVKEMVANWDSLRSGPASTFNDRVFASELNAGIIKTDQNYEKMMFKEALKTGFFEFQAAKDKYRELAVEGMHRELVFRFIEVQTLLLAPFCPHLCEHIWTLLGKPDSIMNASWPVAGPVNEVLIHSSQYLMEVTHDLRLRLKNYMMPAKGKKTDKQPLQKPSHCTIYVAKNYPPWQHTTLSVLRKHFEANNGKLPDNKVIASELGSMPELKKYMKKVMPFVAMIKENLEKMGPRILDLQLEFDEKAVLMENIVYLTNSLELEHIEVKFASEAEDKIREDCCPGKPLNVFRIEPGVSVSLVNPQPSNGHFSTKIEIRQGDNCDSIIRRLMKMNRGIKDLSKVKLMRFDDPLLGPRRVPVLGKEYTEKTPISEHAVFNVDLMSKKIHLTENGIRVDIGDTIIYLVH
pIC50: −log10 of the molar value.
Short version: pIC50 at least 4 is rule met, less is rule not met.

Input line: Quick check: does NCCOc1cccc2c1B(O)OC2 [Example C3-H, reference compound] have pIC50 greater than or equal to 4?
Output line: rule met

Input line: Quick check: does CC1COc2ccc(Cl)c3c2B(O1)OC3CN.Cl (stereo not shown) [Example 7, hydrochloride] have pIC50 greater than or equal to 4?
Output line: rule not met

Input line: Quick check: does CCOc1cccc2c1B(O)O[C@@H]2CN [Example C5-H, reference compound] have pIC50 greater than or equal to 4?
Output line: rule met

Input line: Quick check: does CC1COc2ccc(Br)c3c2B(O1)OC3CN.Cl (stereo not shown) [Example 8, hydrochloride] have pIC50 greater than or equal to 4?
Output line: rule not met

Input line: Quick check: does CC1(C)COc2ccc(Br)c3c2B(O[C@@H]3CN)O1.Cl [Example 10, hydrochloride] have pIC50 greater than or equal to 4?
Output line: rule not met

Input line: Quick check: does NCC1OB2OCCOc3cccc1c32 (racemic) [Example C2-H, reference compound] have pIC50 greater than or equal to 4?
Output line: rule not met

Input line: Quick check: does CC1(C)COc2ccc(Cl)c3c2B(OC3CN)O1.Cl (stereo not shown) [Example 11, hydrochloride] have pIC50 greater than or equal to 4?
Output line: rule not met

Input line: Quick check: does CCOc1ccc(Br)c2c1B(O)O[C@@H]2CN [Example C4-Br, reference compound] have pIC50 greater than or equal to 4?
Output line: rule met

Input line: Quick check: does CC1(C)COc2ccc(Br)c3c2B(OC3CN)O1.Cl (stereo not shown) [Example 9, hydrochloride] have pIC50 greater than or equal to 4?
Output line: rule not met

Input line: Quick check: does CC1(C)COc2ccc(Cl)c3c2B(O[C@@H]3CN)O1.Cl [Example 12, hydrochloride] have pIC50 greater than or equal to 4?
Output line: rule not met

###

pIC50, Human cyto LeuRS (Homo sapiens, UniProt Q9P2J5): measured values
Just the number, please; pIC50 means minus log10 of the concentration in mol/L.

Input line: Find the measured pIC50 of Cl.NC[C@H]1OB2OCCOc3ccc(Cl)c1c32 [Example 4, hydrochloride] and report it.
Output line: 4.02

Input line: Find the measured pIC50 of Cl.NC[C@H]1OB2OCCOc3ccc(Br)c1c32 [Example 2, hydrochloride] and report it.
Output line: 3.93

Input line: Find the measured pIC50 of c1cc2c3c(c1)OCCOB3OC2 [Example C1-H, reference compound] and report it.
Output line: 4.00
